assay: Phase 1 single dose study, immediate release formulations: plasma pharmacokinetics; type: in vivo, human; settings: male, human, plasma, oral, 2 mg, 2 mg/Fasted, immediate release; read-out: AUC0-24
outcome_measure: AUC(0-t)
A complete answer gives the number followed by the unit.

In one line, give reported AUC(0-t) of the entry CC(C)(Sc1ccncc1-c1ccc(C#N)c2ccccc12)C(=O)O .
0.0388 µg·h/mL

* * *

experiment: Phase 1 single dose study, immediate release formulations: plasma pharmacokinetics; format: in vivo, human; conditions: male, human, plasma, oral; 40 mg single dose, Fasted, 2 × 20 mg tablet, Group 2, N = 6; Geomean; read-out: Cmax
outcome_measure: Cmax (ng/mL)
State just the number; it will be interpreted in ng/mL.

Could you please provide reported Cmax for CC(C)(Sc1ccncc1-c1ccc(C#N)c2ccccc12)C(=O)O ? Thanks!
760

* * *

Test: aqueous equilibrium solubility at 37° C.
Assay type: physicochemical
Settings: aqueous media, pH 6.9, aqueous buffer, thermodynamic from solid, 0.03N NaOH, pH initial 12.3, pH (48 h) 6.9, read-out: Solubility after 48 hours
Description: The solubility of 2-((3-(4-cyanonaphthalen-1-yl)pyridine-4-yl)thio)-2-methylpropanoic acid in aqueous media is highly dependent upon pH.
outcome_measure: solubility at 48 h (mg/mL)
Field format: number, assumed mg/mL, no unit text.

For the molecule CC(C)(Sc1ccncc1-c1ccc(C#N)c2ccccc12)C(=O)O , give its reported solubility at 48 h.
10.3

* * *

experiment: aqueous equilibrium solubility at 37° C.; type: physicochemical; conditions: aqueous media, pH 1.6, simulated gastric fluid, thermodynamic from solid, SGF pH 1.6, pH initial 1.6, pH (48 h) 1.4, read-out: Solubility after 48 hours
outcome_measure: solubility at 48 h (µg/mL)
Answer in µg/mL, number only, no unit symbol.

Specify solubility at 48 h for CC(C)(Sc1ccncc1-c1ccc(C#N)c2ccccc12)C(=O)O and stop.
398

* * *

test: aqueous equilibrium solubility at 37° C.; assay type: physicochemical; conditions: aqueous media, pH 5, aqueous buffer, thermodynamic from solid, Citrate pH 5.0, pH initial 5.0, pH (48 h) 4.9, read-out: Solubility after 48 hours
outcome_measure: solubility at 48 h (µg/mL)
Give just the number in µg/mL; leave the unit off.

Quickly give me recorded solubility at 48 h for CC(C)(Sc1ccncc1-c1ccc(C#N)c2ccccc12)C(=O)O
95

* * *

Assay: aqueous equilibrium solubility at 37° C.
Type: physicochemical
Settings: aqueous media, pH 6.8, aqueous buffer, thermodynamic from solid, Potassium phosphate pH 6.8, pH initial 6.9, pH (48 h) 6.5, read-out: Solubility after 48 hours
Source text: The solubility of 2-((3-(4-cyanonaphthalen-1-yl)pyridine-4-yl)thio)-2-methylpropanoic acid in aqueous media is highly dependent upon pH.
outcome_measure: solubility at 48 h (µg/mL)
Give the quantity in µg/mL, number only.

For CC(C)(Sc1ccncc1-c1ccc(C#N)c2ccccc12)C(=O)O , write its solubility at 48 h.
2710

* * *

assay: aqueous equilibrium solubility at 37° C.; assay type: physicochemical; conditions: aqueous media, pH 7, aqueous buffer, thermodynamic from solid, 0.1N NaOH, pH initial 12.8, pH (48 h) 7.0, read-out: Solubility after 48 hours
outcome_measure: solubility at 48 h
Numeric answer plus unit only.

Tell me solubility at 48 h reported for CC(C)(Sc1ccncc1-c1ccc(C#N)c2ccccc12)C(=O)O
33.5 mg/mL
